- System: pentylenetetrazol-induced seizure
- experiment-notes: Anticonvulsant activity: pentylenetetrazol-induced seizure
- Type: in vivo
- cond: mice, i.p. 15 min before 125 mg/kg pentylenetetrazol i.p., deaths noted at 3 hours; dose mg/kg: A 160, B 175, C 185, F 185, G 175
quantity-name: % of protection (%)
Numbers only, in %.

Solved entries (count: 4):
>>> quantitative_result("CCCC(CCC)CCC(=O)O")
85
>>> quantitative_result("CCCC(CCC)CC(=O)O")
100
>>> quantitative_result("CCCC(CCC)CCCC(=O)O")
85
>>> quantitative_result("CCCCC(CCCC)CC(=O)O")
95

Okay, now this molecule:
Any idea what % of protection was measured for CCCC(=CC(=O)O)CCC ?
75
